# System: CCRIS mutagenicity, Ames/micronucleus/aberration tests
# Experimental protocol: CCRIS mutagenicity studies
# Condition details: Test System: AMES SALMONELLA TYPHIMURIUM; Strain/Indicator: TA100; Metabolic Activation: RAT, LIVER, S-9, AROCLOR 1254; Method: PREINCUBATION
The source made the active and inactive calls. The rule behind the calls is not given here.
Assign a class; possible classes are active, inactive

O=C/C=C/c1ccc([N+](=O)[O-])o1 : active
C=C(Cl)C#N : inactive
O=C(CCl)NCO : inactive
CC(=O)C=O : active
CCC1CO1 (stereo not given) : active
CCCCN(CCCC)N=O : active
CC(=O)O[C@]1(C(C)=O)CC[C@H]2[C@@H]3C4OC4(Cl)C4=CC(=O)[C@@H]5C[C@@H]5[C@]4(C)[C@H]3CC[C@@]21C (stereo not given in full) : inactive
CC=O : inactive

Moving on to another compound below.
# input Dear all, I need the recorded test outcome for Nc1nc2ccc(O)cc2[nH]1 , thank you.
# output inactive

###

# Test system: CCRIS mutagenicity, Ames/micronucleus/aberration tests
# Experimental protocol: CCRIS mutagenicity studies
# Condition details: Test System: AMES SALMONELLA TYPHIMURIUM; Strain/Indicator: TA98; Metabolic Activation: RAT, LIVER, S-9, AROCLOR 1254; Method: STANDARD PLATE
Active and inactive are the calls of the source. The rule behind the calls is not given here.
Assign a class; possible classes are label 1 for active, label 0 for inactive

Look over these answered cases.
CCO[Si](OCC)(OCC)OCC : label 0
N#CCCNCCC#N : label 0

Moving on to another compound below.
# input Dear all, I need the recorded test outcome for COc1cc2c(c3oc(=O)c4c(c13)CCC4=O)[C@@H]1CCO[C@@H]1O2 , thank you.
# output label 1

###

# Tested on: CCRIS mutagenicity, Ames/micronucleus/aberration tests
# Experimental protocol: CCRIS mutagenicity studies
# Condition details: Test System: AMES SALMONELLA TYPHIMURIUM; Strain/Indicator: TA1538; Metabolic Activation: NONE; Method: PREINCUBATION
The source made the active and inactive calls. The rule behind the calls is not given here.
Assign a class; possible classes are true for active, false for inactive

Look over these answered cases.
CC1=CC(=O)C=C2CC[C@@H]3[C@H](CC[C@]4(C)C(=O)CC[C@@H]34)[C@@]12C : false
Nc1cc(S(=O)(=O)O)c2cccc(S(=O)(=O)O)c2c1 : false
C[n+]1c2ccccc2cc2c(N)cccc21 : false

# input Dear all, I need the recorded test outcome for N#Cc1ccc([N+](=O)[O-])cc1 , thank you.
# output false

# input Dear all, I need the recorded test outcome for CCCCCOc1cccc(NC(=O)O[C@@H]2CCCC[C@H]2N2CCCC2)c1 , thank you.
# output false

# input Dear all, I need the recorded test outcome for Cc1ccc(C)cc1 , thank you.
# output false

# input Dear all, I need the recorded test outcome for Nc1cccc2nc3ccccc3cc12 , thank you.
# output false

# input Dear all, I need the recorded test outcome for C1N2CN3CN1CN(C2)C3 , thank you.
# output false

# input Dear all, I need the recorded test outcome for O=C(O)Cc1ccc([N+](=O)[O-])cc1 , thank you.
# output false

# input Dear all, I need the recorded test outcome for Sc1ccccc1 , thank you.
# output false

# input Dear all, I need the recorded test outcome for CNC(=O)C[C@@H](N)C(=O)N[C@@H](C(=O)N[C@@H]1C(=O)N2[C@@H]1SC(C)(C)[C@@H]2C(=O)O)c1ccc(O)cc1 , thank you.
# output false

# input Dear all, I need the recorded test outcome for C[Si](C)(C)Cl , thank you.
# output false

# input Dear all, I need the recorded test outcome for CCN1CCNC(=O)C1=O , thank you.
# output false

# input Dear all, I need the recorded test outcome for [N-]=[N+]=[N-] , thank you.
# output false

The reported measurements were obtained from PubChem BioAssay AID1259407.
